- Tested on: Wolbachia pipientis
- assay_procedure: Anti-Wolbachia Cell-Based Screen
- Type: functional
- Set-up: scale not given: in the data most compounds retested in dose-response had high values
- measurement_parameters: 5 µM
Among all 48,000 compounds or so, about 13,000 (27%) showed an effect of 50% or more. The list shows a part of the results.

compound | units_symbol | Percent Effect
COc1ccc(NC(=O)c2cccc(OC)c2OC)cc1 | % | -22.1
CC1(C(N)=O)CN(CC2CCC2)CCO1 (configuration not stated) | % | 100.1
Fc1ccc(CN2CCC3(CCCN(c4nncs4)C3)C2)cc1.O=C(O)C(F)(F)F (configuration not stated) | % | 5.699
C1CC(CN2CCOCC3(CCN(C4CCOCC4)C3)C2)CCO1 (configuration not stated) | % | -8.937
O=C(C1CN(CC2CC2)CC12CCOCC2)N1CCCC1 (configuration not stated) | % | -4.912
CN(C)C(=O)CN1CCC2(C1)CN(CC1CCOCC1)C2 | % | -9.984
CC1(C)CC(CN2CCC3(CCC(=O)N(C4CCC4)C3)CC2)CCO1 (configuration not stated) | % | -1.352
CC1(C(N)=O)CN(CC2CCOCC2)CCO1 (configuration not stated) | % | 88.24
O=C(C1CN(CC2CCOCC2)CC12CCOCC2)N1CCOCC1.O=C(O)C(F)(F)F (configuration not stated) | % | 5.554
COc1ccc(C(=O)Nc2ccccc2C(C)C)c(OC)n1 | % | 169
CCN1CC(NC(=O)Nc2nc(C)n(C(C)C)n2)CC1=O (configuration not stated) | % | -13.6
CC1(C(=O)N2CCOCC2)CN(CC2CCOCC2)CCO1 (configuration not stated) | % | 129.5

---

- Test system: Wolbachia pipientis
- assay_procedure: Anti-Wolbachia Cell-Based Screen
- Assay type: functional
- Set-up: scale not given: in the data most compounds retested in dose-response had high values
- measurement_parameters: 5 µM
The campaign covered roughly 48,000 compounds. About 13,000 (27%) showed an effect of 50% or more. Some of the results follow.

molecule | Percent Effect [%]
CC(=O)Nc1ccc(OCc2noc(C(=O)N3CCCCCC3)n2)cc1 | 101
CC(C(=O)Nc1ccc(N2CCCC2)nc1)n1cccn1 (centres undefined) | 93.36
CC(C(=O)Nc1cccc(N2CCCCC2)c1)n1cncn1 (centres undefined) | 4.529
CN(C)C(=O)CN1C[C@@H]2CC[C@H](C1)N(C(=O)CCn1cncn1)C2 | -10.88
CCc1[nH]c2c(CNC(=O)C3CNC(=O)C3)cc(C)cc2c1C (centres undefined) | -7.809
CCCC(=O)NC(C(=O)OC)c1cc(F)ccc1F (centres undefined) | 95.91
CCOCCCC(=O)Nc1ccc(OCc2noc(C3CC3)n2)cc1 | 20.67
CCOC(=O)c1ccc(N2CCN(Cc3c(C)nn(C)c3Cl)CC2)nc1 | -11.85
CCc1[nH]c2c(CNC(=O)C3CCC(=O)NC3)cc(C)cc2c1C (centres undefined) | -3.367
Cc1ccc(CNC(=O)C2CCNC(=O)C2)c(OCCC(C)C)c1 (centres undefined) | 103.9
Cc1nc(O)cc(C2CCCN(C(=O)c3cccc(N(C)C)c3)C2)n1 (centres undefined) | 2.27
O=C(c1ccc[nH]1)N1C[C@H]2CC[C@@H]1CN(C1Cc3ccccc3C1)C2 | -8.418
CC(=O)Nc1ccc(OCc2noc(C(=O)N3CCCC3)n2)cc1 | 120.5
CC(C(=O)Nc1ccc(N2CCCCC2)nc1)n1ccnc1 (centres undefined) | 105.1
NC(=O)Cc1ccc(OCc2noc(C(=O)N3CCCC3)n2)cc1 | 130.8
CC(C)(C)Oc1ccccc1CNC(=O)C1CCCOC1 (centres undefined) | -47.48
CCS(=O)(=O)CC(=O)Nc1cccc2c1CN(CC(C)C)C2 | -13.69
CN(C)c1cccc(C(=O)NCC2(O)CCOCC2)c1 | -18.41
CC(C)Cc1ncc(CNc2cnccc2CO)s1 | 2.618
O=C(CNC(=O)C1CC1)Nc1c(F)cccc1Oc1ccccc1 | -3.554
O=C(NCc1ccccc1OCC1CC1)C1CCOC1 (centres undefined) | -26.71
CCCc1nccn1-c1cccc(C(C)O)c1 (centres undefined) | 0.8056
CNS(=O)(=O)c1cccc(C(C)NCc2ccco2)c1 (centres undefined) | -0.2197
Cc1ccc(C)c(OCCNC(=O)C2CCOC2)c1 (centres undefined) | -7.675
O=C(CCc1ccco1)Nc1cccc(S(=O)(=O)C(F)F)c1 | 1.803
CN(C)c1cc(C(=O)Nc2ccccc2C(=O)NC(C)(C)C)ccn1 | 0.03536
CC(C)OCCC(=O)N(C)c1ccc(F)c(Cl)c1 | 3.103
COCCCn1c(CN2CCCC(O)C2)cnc1S(=O)(=O)C1CCCC1 (centres undefined) | -2.252
CCn1c(NCc2ccco2)nc2c(C)nn(C)c2c1=O | 25.01
N#Cc1ccc(SCCOCCO)c(Cl)c1 | -25.21
Cc1ccccc1C1(C(=O)N2CCOC(C)C2)CCOCC1 (centres undefined) | -22.89
Cc1nccn1C1(C(=O)O)CCN(Cc2ccc3nsnc3c2)CC1 | 4.136
CN(C)c1ccc(C(=O)NCC2(O)CCOCC2)cc1 | -16.02
CCN1CC(C(=O)NCc2nc(C3CCCCC3)no2)CC1=O (centres undefined) | -30.34
CCCc1cc(C(=O)N2CC(c3ccncc3)C2)ccn1 | -34.73
CN(CC1=CCCN(CCc2ccccn2)C1)C(=O)c1ccco1 | 0.7414
COC(=O)C(NC(=O)C(C)C)c1cc(F)ccc1F (centres undefined) | -7.207
COC(=O)c1ccc(C(=O)NCC2(O)CCOCC2)cc1 | 130.4
O=C1CC(C(=O)NCc2ccccc2Oc2ccccc2F)CCN1 (centres undefined) | 91.68
Cc1nccc(C2CCCN(C(=O)c3cncnc3)C2)n1 (centres undefined) | 134.6
CCOC(=O)C(C)NC(=O)CCSc1ccc(F)cc1 (centres undefined) | 5.779
CC(C(=O)NC(C)(C)C)S(=O)(=O)Cc1noc(C(C)(C)C)n1 (centres undefined) | 3.309
CC(=O)Nc1ccc(OCc2noc(C(=O)N3CCCCC3)n2)cc1 | 122.5
CC(C(=O)Nc1ccc(N2CCCCC2)nc1)n1cncn1 (centres undefined) | 95.56
Cc1noc(OCc2csc(C)n2)n1 | 2.505
CC(C(=O)Nc1ccc(N2CCCC2)nc1)n1ccnc1 (centres undefined) | -0.9927
CC(Cn1cccn1)NC(=O)Nc1ccc(N2CCCC2)nc1 (centres undefined) | -16.81
O=C1CCC(C(=O)NCCOc2cccc(Cl)c2Cl)CN1 (centres undefined) | -0.2416
Cc1ccc(C(=O)NCC2(O)CCOCC2)cc1F | -12.72
